target_or_system: CuZnSOD (UniProt P00442)
assay_overview: Superoxide dismutase (SOD) spectrophotometric XTT assay, Protocol 1
Format: biochemical
condition_label: read-out: IC 50/μM (+/− SEM) SOD Inhibition, xanthine oxidase/XTT, 24° C., 30 minutes
recorded_endpoint: IC50 (µM)

COc1cc2c(cc1O)CCC1C2CCC2(C)C1CCC2(O)Cc1ccccc1 (centres unmarked) = 88

---

target_or_system: CuZnSOD (UniProt P00442)
assay_overview: Superoxide dismutase (SOD) spectrophotometric XTT assay, Protocol 1
Format: biochemical
condition_label: xanthine oxidase/XTT, 24° C., 30 minutes, read-out: IC 50/μM (+/− SEM) SOD Inhibition
recorded_endpoint: IC50

COc1cc2c(cc1N)CCC1C2CCC2(C)C(=O)CCC12 (stereo not shown) = 79 µM
C[S+]([O-])c1cc2c(cc1O)CCC1C2CCC2(C)C(=O)CCC12 (stereo not shown) = > 100 µM
COc1cc2c(cc1O)CCC1C2CC[C@]2(C)CCCC12 (stereo partly shown) = > 100 µM
CC12CCC3c4cc([N+](=O)[O-])c(O)cc4CCC3C1CCC2=O (stereo not shown) = > 100 µM
CCc1cc2c(cc1O)CCC1C2CCC2(C)C(=O)CCC12 (stereo not shown) = > 100 µM
CCc1cc2c(cc1OS(N)(=O)=O)CCC1C2CCC2(C)C(=O)CCC12 (stereo not shown) [Compound 26, 2-ethylestrone-3-O-sulphamate] = > 100 µM
COc1cc2c(cc1O)CCC1C2CCC2(C)C(=O)CCC12 (stereo not shown) [Compound 5, 2-methoxyestrone, reference compound] = 14 µM

---

target_or_system: CuZnSOD (UniProt P00442)
assay_overview: Superoxide dismutase (SOD) spectrophotometric XTT assay, Protocol 1
Assay type: biochemical
condition_label: xanthine oxidase/XTT, 24° C., 30 minutes, read-out: IC 50/μM (+/− SEM) SOD Inhibition
recorded_endpoint: IC50 (µM)

COc1cc2c3c(c(=O)oc2cc1O)CCCCC3 [Compound 14] = 91
CCOc1cc2c(cc1O)CCC1C2CCC2(C)C(=O)CCC12 (centres unmarked) [Compound 7, 2-ethoxyestrone] = 19
CCSc1cc2c(cc1O)CCC1C2CC[C@]2(C)C(=O)CCC12 (some centres unmarked) [Compound 10, 2-ethylsulfanylestrone] = 79
COc1cc2c(cc1O)CCC1C2CCC2(C)C(O)CCC12 (stereo not drawn) [Compound 4, 2-methoxy-17α-estradiol] = 13

---

System: STS
assay_overview: Plate assay, % inhibition
Format: biochemical
condition_label: 1 μM
recorded_endpoint: Plate Assay, % inhibition 1 μM

CSc1cc2c(cc1O)CCC1C2CCC2(C)C1CCC2(O)Cc1ccc(C(C)(C)C)cc1 (stereo not shown) = <1%
CCSc1cc2c(cc1O)CCC1C2CC[C@]2(C)C(=O)CCC12 (stereo partly shown) = <4%
CSc1cc2c(cc1OS(N)(=O)=O)CCC1C2CCC2(C)C1CCC2(O)Cc1ccc(C(C)(C)C)cc1 (stereo not shown) = <1%
CSc1cc2c(cc1OS(N)(=O)=O)CCC1C2CC[C@@]2(C)C1CC[C@@]2(O)Cc1ccccc1 (stereo in doubt) = <1%
